Recorded % Protection vs 3-NP, one value per entry.
Test system: rat mixed hippocampal cultures
Test: 3-NP neurotoxicity assay, MTT viability, rat mixed hippocampal cultures
Type: cell-based
Conditions: Table 3; 3 mM 3-NP 18 h, 1 h preincubation; test concentration (10 μM)
QUANTITY_MEASURED: % Protection vs 3-NP (%)

[[record]]
compound = "COC(=O)C[C@H]1C(C)(C)C(=O)[C@@H]2CC3=C(CC[C@]4(C)C3=CC(=O)O[C@H]4c3ccoc3)[C@@]1(C)C2=O"
quantity_measured = "% Protection vs 3-NP"
unit_abbreviation = "%"
recorded_result = 38

[[record]]
compound = "COC(=O)C[C@H]1C(C)(C)C2(O)OC34CC2C(=O)[C@]1(C)C3CC[C@]1(C)C4=CC(=O)O[C@H]1c1ccoc1 (stereo partly drawn) [8beta-HYDROXYCARAPIN, 3,8-HEMIACETAL]"
quantity_measured = "% Protection vs 3-NP"
unit_abbreviation = "%"
recorded_result = 9

[[record]]
compound = "CC(=O)O[C@H]1C[C@@H](O)C(C)(C)[C@@H]2C[C@@H](OC(C)=O)[C@]3(C)[C@H](CC[C@@]4(C)[C@@H](c5ccoc5)OC(=O)[C@H]5O[C@@]534)[C@@]12C"
quantity_measured = "% Protection vs 3-NP"
unit_abbreviation = "%"
recorded_result = 7

[[record]]
compound = "CCC(C)C(=O)O[C@@H]1C[C@@]2(C)[C@H](c3ccoc3)OC(=O)CC23OC2(C)OC34[C@H](OC(=O)C(C)C)[C@@]3(O)[C@@H](OC(=O)C5(C)OC5C)[C@@]5(C)C[C@]3(O)[C@@](C)([C@H]5CC(=O)OC)C14O2 (stereo partly shown)"
quantity_measured = "% Protection vs 3-NP"
unit_abbreviation = "%"
recorded_result = 18

